Source: PubChem BioAssay AID330

- Test system: P388 leukemia ip, CD2F1 mice, survival T/C
- EXPERIMENT DESCRIPTION: NCI In Vivo Anticancer Drug Screen. Data for tumor model P388 Leukemia (intraperitoneal) in CD2F1 (CDF1) mice
- COND: endpoint: median survival time; dose: 25.0 mg/kg/injection; schedule: Q01DX009 (ip); vehicle: other; higher = longer survival
Toxic doses and inconclusive results are not listed.

- COMPOUND: "COc1cc(/C=N/NS(=O)(=O)c2ccc(C)cc2)cc([N+](=O)[O-])c1O"
  T/C: "106 % of control"
- COMPOUND: "CC1(C)C(C(N)=O)C(=O)NC(=O)C1C(N)=O (stereo not drawn)"
  T/C: "100 % of control"
- COMPOUND: "COc1cc2c(cc1OC)C(NC=O)CCC2 (stereo not drawn)"
  T/C: "101 % of control"

----------
T/C by entry:
- Test system: P388 leukemia ip, CD2F1 mice, survival T/C
- EXPERIMENT DESCRIPTION: NCI In Vivo Anticancer Drug Screen. Data for tumor model P388 Leukemia (intraperitoneal) in CD2F1 (CDF1) mice
- COND: endpoint: median survival time; dose: 100.0 mg/kg/injection; schedule: Q04DX003 (ip); vehicle: saline with Tween-80; higher = longer survival
Toxic doses and inconclusive results are not listed.

- MOLECULE: "COc1cccc(/C=N\\NC(=O)C(C)SC(C)C(=O)N/N=C/c2cccc(OC)c2)c1 (stereo not drawn)"
  T/C: "104 % of control"
- MOLECULE: "C=CCCCn1nnc2ccccc21"
  T/C: "102 % of control"
- MOLECULE: "CSc1nc(N)c(I)c(Cl)n1"
  T/C: "102 % of control"
- MOLECULE: "C=CC(=C)CCC=C(C)C"
  T/C: "110 % of control"
- MOLECULE: "CCCCCCCCCCCCCCCCCCCCCC(=O)OC"
  T/C: "91 % of control"
- MOLECULE: "CC1(C)OC2C(CO)OC(n3ncc(=S)[nH]c3=O)C2O1 (stereo not drawn)"
  T/C: "102 % of control"
- MOLECULE: "BrC1(Br)C2CCCCCCC21 (stereo not drawn)"
  T/C: "104 % of control"
- MOLECULE: "CCOC(=O)c1c(N)sc2c1CCCCC2"
  T/C: "100 % of control"

----------
- Tested on: P388 leukemia ip, CD2F1 mice, survival T/C
- EXPERIMENT DESCRIPTION: NCI In Vivo Anticancer Drug Screen. Data for tumor model P388 Leukemia (intraperitoneal) in CD2F1 (CDF1) mice
- COND: endpoint: median survival time; dose: 50.0 mg/kg/injection; schedule: Q01DX009 (ip); vehicle: Klucel (hydroxypropylcellulose) (HPC); higher = longer survival
- Method: The antitumor activity of compounds was measured in mice bearing transplantable tumors. Survival or tumor size were measured and the results are expressed as the measurement made in the treated group (T) divided by the measurement made in the vehicle treated control group (C). The tumor model used in this assay is P388 Leukemia (intraperitoneal) in CD2F1 (CDF1) mice
Toxic doses and inconclusive results are not listed.
Reported T/C values follow for various molecules
PROPERTY MEASURED: T/C

- MOL SMILES: "C=C1C(=O)O[C@@H]2[C@H]1CC[C@H](C)[C@]1(O)CCC(=O)[C@@]21C"
  VALUE: "117 % of control"
- MOL SMILES: "OC(Cc1cccnc1)(c1ccccc1)c1ccccc1"
  VALUE: "111 % of control"
- MOL SMILES: "C=CCn1c(=O)n(CC)c(=O)c2[nH]c(C(F)(F)F)nc21"
  VALUE: "102 % of control"

----------
- Tested on: P388 leukemia ip, CD2F1 mice, survival T/C
- EXPERIMENT DESCRIPTION: NCI In Vivo Anticancer Drug Screen. Data for tumor model P388 Leukemia (intraperitoneal) in CD2F1 (CDF1) mice
- COND: endpoint: median survival time; dose: 50.0 mg/kg/injection; schedule: Q01DX005 (ip); vehicle: saline with Tween-80; higher = longer survival
Toxic doses and inconclusive results are not listed.

- COMPOUND: "N=C(N)c1ccc(N=Nc2c(O)ccc3c2[nH]c2ccccc23)cc1"
  T/C: "101 % of control"
- COMPOUND: "CCN1C(=O)NS(=O)(=O)c2ccccc21"
  T/C: "94 % of control"
- COMPOUND: "O=C1N(CCc2ccccc2)CCCS1(=O)=O"
  T/C: "115 % of control"
- COMPOUND: "CC(=O)N1C=Cc2ccccc2C1(Br)C1(Br)c2ccccc2C=CN1C(C)=O (centres undefined)"
  T/C: "99 % of control"
- COMPOUND: "OCCN(CCO)c1ncnc2nc[nH]c12"
  T/C: "88 % of control"
- COMPOUND: "O=C1CSc2nc3ccc(Br)cc3c(=O)n21"
  T/C: "100 % of control"
- COMPOUND: "COC(=O)CC1c2ccc3cc(OC)ccc3c2CCC1(C)C(=O)OC (centres undefined)"
  T/C: "103 % of control"
- COMPOUND: "O=c1[nH]c2cc3c(cc2n2cccc12)oc1ccccc13"
  T/C: "100 % of control"
- COMPOUND: "CCC1=C(C(C)OCCO)C(=O)c2ccccc2C1=O (centres undefined)"
  T/C: "96 % of control"
- COMPOUND: "C=CCO[C@H]1CO[C@H]2[C@@H]1OC[C@H]2OCC=C"
  T/C: "96 % of control"
- COMPOUND: "c1ccc2c(OCC3CO3)c3ccccc3nc2c1 (centres undefined)"
  T/C: "118 % of control"
- COMPOUND: "O=C1NC(O)c2cccc(F)c2O1 (centres undefined)"
  T/C: "100 % of control"
- COMPOUND: "COc1cc2c(cc1C(C)c1ccc(OC(C)C)cc1)OCO2 (centres undefined)"
  T/C: "98 % of control"
- COMPOUND: "CC(C)(C)c1cc(CCCCCCCC2(CCCCCCCc3cc(C(C)(C)C)cc(C(C)(C)C)c3)OC(COCCOCCOCCCC#N)C(COCCOCCOCCCC#N)O2)cc(C(C)(C)C)c1 (centres undefined)"
  T/C: "95 % of control"
- COMPOUND: "CCN(CC)CCOC(C)(C)C#CC(C)(C)O"
  T/C: "100 % of control"
- COMPOUND: "O=C(CCCC(=O)Nc1ccc2c(=O)c3ccccc3[nH]c2c1)Nc1ccc2c(=O)c3ccccc3[nH]c2c1"
  T/C: "98 % of control"
- COMPOUND: "CCCCNC(=O)c1ccccc1C(=O)NC1(C(=O)NCCCC)CCCC1"
  T/C: "101 % of control"
- COMPOUND: "Cc1[nH]nc2c1NC(=O)OC2"
  T/C: "104 % of control"
- COMPOUND: "COc1ccc2c(c1)OC(=O)C(S(=O)(=O)c1ccccc1)C2 (centres undefined)"
  T/C: "102 % of control"

----------
- Test system: P388 leukemia ip, CD2F1 mice, survival T/C
- EXPERIMENT DESCRIPTION: NCI In Vivo Anticancer Drug Screen. Data for tumor model P388 Leukemia (intraperitoneal) in CD2F1 (CDF1) mice
- COND: endpoint: median survival time; dose: 50.0 mg/kg/injection; schedule: Q04DX002 (ip); vehicle: saline with Tween-80; higher = longer survival
Toxic doses and inconclusive results are not listed.

- MOLECULE: "COc1c(CC(C)O)c2c3c(CC(C)O)c(OC)c(=O)c4cc(O)c5c(c6c(c(O)cc(c1=O)c26)OCO5)c43 (stereo not drawn)"
  T/C: "109 % of control"
- MOLECULE: "CC(C)N1C(=O)C2C3C=CC(C3)C2C1=O (stereo not drawn)"
  T/C: "108 % of control"
- MOLECULE: "CNc1nc(-c2ccc(OC)cc2)c(-c2ccc(OC)cc2)[nH]1"
  T/C: "107 % of control"

----------
Let's look at some compounds and their measured T/C.
- Tested on: P388 leukemia ip, CD2F1 mice, survival T/C
- EXPERIMENT DESCRIPTION: NCI In Vivo Anticancer Drug Screen. Data for tumor model P388 Leukemia (intraperitoneal) in CD2F1 (CDF1) mice
- COND: endpoint: median survival time; dose: 400.0 mg/kg/injection; schedule: Q01DX009 (ip); vehicle: saline with Tween-80; higher = longer survival
- Experimental: The antitumor activity of compounds was measured in mice bearing transplantable tumors. Survival or tumor size were measured and the results are expressed as the measurement made in the treated group (T) divided by the measurement made in the vehicle treated control group (C). The tumor model used in this assay is P388 Leukemia (intraperitoneal) in CD2F1 (CDF1) mice
Inconclusive results and toxic doses are left out.
PROPERTY MEASURED: T/C

- COMPOUND: "Cc1nc2[nH][nH]c(=O)c2nc1C"
  PROPERTY MEASURED: "T/C"
  VALUE: "94 % of control"
- COMPOUND: "O=c1cccc(Cl)[nH]1"
  PROPERTY MEASURED: "T/C"
  VALUE: "100 % of control"
- COMPOUND: "O=C(O)C(Cc1ccccc1[N+](=O)[O-])N1C(=O)c2ccccc2C1=O (stereo not drawn)"
  PROPERTY MEASURED: "T/C"
  VALUE: "100 % of control"
